Here, each record is paired with measured growth data.
System: MOLT-4 leukemia
Assay: NCI-60 one-dose screen, 48 h (100 = growth as untreated, 0 = no growth, -100 = all killed)
Conditions: 10 µM unless noted
About 83,000 compounds went through this panel and 20% of them were active in at least one assay; those are over-represented in the sample as a whole.
Write the number in % without appending the unit.

| molecule | unit-text | growth |
| --- | --- | --- |
| COC(=O)/C=C1\S/C(=N\NC(=O)c2cc3ccc2/C=C\c2ccc(cc2)/C=C\3)N(Cc2ccccc2)C1=O | % | 1.09 |

Entry `C#CCNC(=O)[C@]1(C)CC[C@]2(C)CC[C@@H]3C(=CC[C@H]4[C@@]3(C)CC[C@H]3C(C)(C)C(=O)CC[C@]43C)[C@@H]2C1` ; growth = 93.1

For this molecule ( NC(=NCc1ccccc1)C(N=Nc1ccccc1)C(=O)NCc1ccccc1 (stereo not drawn) ), measured growth is 61

// growth value for `O=C1Nc2cc(Cl)ccc2/C1=C\c1c(-c2ccc(F)cc2)nc2ccccn12` : -4.44

###

Tested on: UO-31 renal
Assay: NCI-60 one-dose screen, 48 h
Conditions: 10 µM unless noted
Compounds without any hit were thinned out: in the full panel of roughly 83,000, 20% have a hit. Activity calls are given as the source filed them. How the source made its calls: active means growth percent below 10; inactive means the rest.
// one of active, inactive, no free text

Example cases with answers are listed next.
| compound | classification |
| --- | --- |
| O=S(=O)(NCCCNc1nccc(-c2c(-c3cccc(O)c3)nc3occn23)n1)c1ccc(Cl)cc1 | inactive |
| CCN(c1ccccc1)S(=O)(=O)c1cc([N+](=O)[O-])ccc1Cl | inactive |
| N#C/C(=C\c1ccc([N+](=O)[O-])s1)c1nc2cc(Br)ccc2s1 | active |
| Cc1cc2c(C(=O)NCC#N)cccc2n1-c1nc2c(c(NCc3ccccc3)n1)CCCC2 | active |

Query: Hey, what did the test say about `COc1ccc(OC)c(CCn2cncc2-c2c[nH]c3ccccc23)c1` ?
Result: inactive

Query: Fill in: this test's call for `O=C(C[n+]1cccc2ccccc21)c1ccc(O)c(O)c1` is ___
Result: inactive

###

System: OVCAR-8 ovarian
Experiment: NCI-60 one-dose screen, 48 h
Conditions: 10 µM unless noted
Compounds without any hit were thinned out: in the full panel of roughly 83,000, 20% have a hit. Activity calls are given as the source filed them. How the source made its calls: active means growth percent below 10; inactive means the rest.
Pick one and only one: active, inactive

Some solved entries appear below for comparison.
| compound | classification |
| --- | --- |
| CC(C)(C)CC(C)(C)n1nnnc1C(NC12CC3CC(CC(C3)C1)C2)c1ccccc1 (centres undefined) | inactive |
| COc1cc2nc(-c3ccc(Cl)cc3)cc(OCCCN3CCC(O)CC3)c2cc1OC | inactive |
| c1ccc2c(-c3c[nH]c4ccccc34)c3c(cc2c1)[nH]c1ccccc13 | inactive |
| C=C1C(=O)O[C@H]2[C@H]1CC/C(CNC(=O)/C=C/c1cccc(OC)c1)=C\CC[C@@]1(C)O[C@@H]21 | active |
| NS(=O)(=O)c1ccc(CCN2C(=O)c3cc(Cl)c(Cl)cc3C2=O)cc1 | inactive |

Query: Hi, sorry to bother you, what did the test record for `CCCCCCNC(=O)Oc1ccc(/C(=C(\C)c2ccccc2)c2ccc(OCCN3CCCCC3)cc2)cc1` ?
Result: inactive

Query: Hey, what did the test say about CCN1C(=O)N(CC)C2Nn3c(s/c(=C\c4ccc(OC)cc4)c3=O)=NC21 (centres undefined) ?
Result: inactive

Query: Each compound tested received a call. Report the one for `COc1ccc(/C=C/c2nc(Nc3ccc(S(=O)(=O)Nc4cc(C)on4)cc3)c3ccccc3n2)cc1` .
Result: inactive

Query: Which result was noted for this compound in the test: `CN1[C@@H]2CC[C@H]1/C(=C\c1ccccc1)C(=O)/C2=C/c1ccccc1`
Result: active

Values from PubChem BioAssay (NCI)
